System Under Test: human σ1 receptor (Homo sapiens)
Sequence (Q99720 whole entry): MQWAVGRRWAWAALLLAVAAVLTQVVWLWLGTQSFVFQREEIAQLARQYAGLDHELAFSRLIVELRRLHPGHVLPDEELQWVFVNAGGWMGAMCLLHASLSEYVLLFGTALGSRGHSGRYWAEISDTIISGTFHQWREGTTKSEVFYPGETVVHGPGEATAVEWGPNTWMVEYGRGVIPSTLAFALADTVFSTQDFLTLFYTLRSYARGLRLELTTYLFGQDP
Measurement Type: Ki

In [3]: df
Out[3]:
                                   compound  measurement_type  value_measured
0  CN(CC(C)(C)C)[C@H]1CC[C@H](NS(=O)(=O)c2ccc(N3CCC4(CCOC4)CC3)nc2)CC1                Ki       > 1000 nM

Look at this compound and give its reported Ki. `CC(C)CN1CCC2(CC1)CCN(S(=O)(=O)c1ccc(C(F)(F)F)nc1)CC2`
500 to 1000 nM

What value of measured Ki is listed for `CC(C)(C)CN1CCC2(CC1)CCN(S(=O)(=O)c1ccc(N3CCC(F)(F)CC3)nc1)CC2` ?
100 to 500 nM

Field request: Ki | item: `O=S(=O)(NC1CCN(Cc2cccc(F)c2)CC1)c1ccc(N2CCOCC2)nc1`
< 100 nM

// lookup Ki for `O=C1CCCN1c1ccc(S(=O)(=O)N2CCCC3(CCN(CC4CCOCC4)CC3)C2)cn1`
< 100 nM
